Tested on: 475296-252-R-J1-PDC spheroid viability;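 also: spheroids exposed to agents for seven days before readout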
Assay: Anticancer human tumor 475296-252-R-J1-PDC patient-derived rectal carcinoma cell line growth inhibition [PI3K]
Conditions: second compound 10 µM; first compound 0.001 µM; stronger effect = lower value; spheroids with HUVEC and MSC
outcome_measure: viability, T/C

Known viability, T/C results, listed for orientation:
Exercise: What does the data say about its viability, T/C? Entry: Cn1ncnc1[C@H]1c2n[nH]c(=O)c3cc(F)cc(c23)N[C@@H]1c1ccc(F)cc1 + CC(Nc1ncnc2nc[nH]c12)c1cc2cccc(Cl)c2c(=O)n1-c1ccccc1
Key: 85%

Exercise: Requested field: viability, T/C. Item: Cn1ncnc1[C@H]1c2n[nH]c(=O)c3cc(F)cc(c23)N[C@@H]1c1ccc(F)cc1 + Cc1nc(NC(=O)N2CCCC2C(N)=O)sc1-c1ccnc(C(C)(C)C(F)(F)F)c1
Key: 92.1%

Continuing:
Exercise: What measured viability, T/C goes with CC(C)n1nc(-c2ccc3oc(N)nc3c2)c2c(N)ncnc21 + CC(Nc1ncnc2nc[nH]c12)c1cc2cccc(Cl)c2c(=O)n1-c1ccccc1 ?
Key: 92%

Exercise: // query viability, T/C value for entry CC(C)n1nc(-c2ccc3oc(N)nc3c2)c2c(N)ncnc21 + Cc1nc(NC(=O)N2CCCC2C(N)=O)sc1-c1ccnc(C(C)(C)C(F)(F)F)c1
Key: 85.1%

Exercise: Item CC(=O)c1c(C)c2cnc(Nc3ccc(N4CCNCC4)cn3)nc2n(C2CCCC2)c1=O + CC(Nc1ncnc2nc[nH]c12)c1cc2cccc(Cl)c2c(=O)n1-c1ccccc1 has what recorded viability, T/C?
Key: 94.8%

Exercise: I have this compound here, CC(=O)c1c(C)c2cnc(Nc3ccc(N4CCNCC4)cn3)nc2n(C2CCCC2)c1=O + Cc1nc(NC(=O)N2CCCC2C(N)=O)sc1-c1ccnc(C(C)(C)C(F)(F)F)c1 , and I need its recorded viability, T/C.
Key: 92.7%
